System: ALL-SIL;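 also: ALL cell lines in 384-well plates, five doses spanning 10,000-fold, each plate scaled between vehicle and 100 µmol/L benzalkonium chloride controls, sDSS an adapted area-under-curve metric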
PROTOCOL TEXT: selective drug sensitivity score (sDSS, relative to normal bone marrow) (sDSS (score)); higher = more potent and effective on the cell line relative to normal bone marrow cells
APPLIED CONDITIONS: 72 h
Collected selective drug sensitivity score values appear next to each entry.

{"columns": ["COMPOUND", "selective drug sensitivity score"],
 "data": [
  ["Cn1cc(CNCC2CCN(c3ncc(C(=O)NO)cn3)CC2)c2ccccc21 [Quisinostat] (top concentration 1000 nM)", 5.68],
  ["O=C(Nc1ccc2[nH]nc(-c3ccncc3)c2c1)[C@@H]1CCN(CC(=O)N2CCN(c3ccc(-c4ncccn4)cc3)CC2)C1 (top concentration 10000 nM)", 0.16],
  ["O=C(O)CC1CC(c2ccccc2)=NO1 (stereo not drawn) [VGX-1027] (top concentration 10000 nM)", -0.04],
  ["COc1c(C)cnc(Cn2cnc3c(Cl)nc(N)nc32)c1C [BIIB021] (top concentration 10000 nM)", 5.88],
  ["Cc1ccc(-n2nc(C(C)(C)C)cc2NC(=O)Nc2ccc(OCCN3CCOCC3)c3ccccc23)cc1 [Doramapimod] (top concentration 10000 nM)", -0.24],
  ["CC(C)Nc1cc(-c2c[nH]c(C(=O)N[C@H](CO)c3cccc(Cl)c3)c2)c(Cl)cn1 [Ulixertinib] (top concentration 10000 nM)", 3.02],
  ["O=C(Nc1c[nH]nc1-c1nc2ccc(CN3CCOCC3)cc2[nH]1)NC1CC1 [AT9283] (top concentration 1000 nM)", 15.6],
  ["CC(C)(C)Cn1c(N)nc2ccc(-c3[nH]c(C(C)(C)C)nc3-c3ccc(F)cc3)nc21 [Ralimetinib] (top concentration 10000 nM)", 3.36],
  ["CCN(CC)CCNC(=O)c1c(C)[nH]c(/C=C2\\C(=O)Nc3ccc(F)cc32)c1C [Sunitinib] (top concentration 1000 nM)", 0.76],
  ["CC(=O)c1c(C)c2cnc(Nc3ccc(N4CCNCC4)cn3)nc2n(C2CCCC2)c1=O [Palbociclib] (top concentration 10000 nM)", -2.12],
  ["C=CC(=O)Nc1cc(Nc2nccc(-c3cn(C)c4ccccc34)n2)c(OC)cc1N(C)CCN(C)C [Osimertinib] (top concentration 2500 nM)", -2.52],
  ["Nc1ccccc1NC(=O)c1ccc(CNC(=O)OCc2cccnc2)cc1 [Entinostat] (top concentration 10000 nM)", 12.1],
  ["CCN(c1cc(-c2ccc(CN3CCOCC3)cc2)cc(C(=O)NCc2c(C)cc(C)[nH]c2=O)c1C)C1CCOCC1 [Tazemetostat] (top concentration 10000 nM)", 0.12]
]}
